# test.method.notes: qHTS for Inhibitors of the Functional Ribonucleoprotein Complex (vRNP) of Lymphocytic Choriomeningitis Arenaviruses (LCMV): Viability assay - alamar blue signal for LCMV Primary Screen (AID 1347085); further: nearly all actives have a fitted effect of over 80% in size
# settings: alamar blue viability counter-screen, LCMV vRNP screen cells; series mostly up to 57.5 µM
Records with an inconclusive call do not appear. Calls of active or inactive are those of the source. The call rests on the fitted dose curve; tested in HEK293 reporter line.
Use one of these outcomes when replying: active, inactive

**Query** Could you kindly confirm the outcome this assay logged for CC1(C)C2=CCCC(C)(C)[C@]23CC[C@H]1C3 ?
**Result** inactive

**Query** Try the compound O=[N+]([O-])c1ccc(CSc2ncnc3c2ncn3[C@@H]2O[C@H](CO)[C@@H](O)[C@H]2O)cc1
**Result** inactive

**Query** Try the compound CC(C)(O)[C@H]1CC[C@@](C)([C@H]2[C@@H](O)C[C@@]3(C)[C@@H]4C[C@H](O[C@@H]5O[C@H](CO)[C@@H](O)[C@H](O)[C@@H]5O)[C@H]5C(C)(C)[C@@H](O[C@@H]6OC[C@@H](O)[C@H](O)[C@@H]6O)CC[C@@]56C[C@@]46CC[C@]23C)O1
**Result** inactive

**Query** Try the compound CCCCOc1cc(CC2CNC(=O)N2)ccc1OC (stereo not drawn)
**Result** inactive

**Query** Try the compound CCN(C(=O)c1c(O)c2c(Cl)cccc2n(C)c1=O)c1ccccc1
**Result** inactive

**Query** Try the compound C=C1[C@@H]2C[C@]3(C(CC2=O)[C@]24C5C[C@H]3[C@H]2N(CC)C[C@]5(C)CC[C@@H]4O)[C@@H]1O (stereo partly drawn)
**Result** inactive

**Query** Try the compound NC(N)=[N+]1CCc2ccccc2C1
**Result** inactive

**Query** Try the compound CC(=O)NCC(=O)N1[C@H]2CC[C@H]1c1cc(Nc3ncc(C(F)(F)F)c(NC4CCC4)n3)ccc12
**Result** active
